Where do the numbers come from? From ChEMBL document CHEMBL1131732.

# systemName: GABA-A receptor; anion channel
# testDescription: In vitro inhibitory against Gamma-aminobutyric acid A receptor from rat cerebral cortex using [3H]flunitrazepam as the radioligand
pIC50: −log10 of the molar value.
// label = YES if pIC50 is not less than 8, otherwise NO

Example results:
[[record]]
molsmiles = "O=C(Nc1ccccc1F)C1=C(O)CCn2c1nc1ncccc12"
systemname = "GABA-A receptor; anion channel"
label = "YES"

[[record]]
molsmiles = "O=C(Nc1c(F)cccc1F)C1=C(O)CCn2c1nc1ncccc12"
systemname = "GABA-A receptor; anion channel"
label = "NO"

[[record]]
molsmiles = "COc1ccc2c(c1)nc1n2CCC(O)=C1C(=O)Nc1ccccc1"
systemname = "GABA-A receptor; anion channel"
label = "NO"

[[record]]
molsmiles = "O=C(Nc1c(F)cccc1F)C1=C(O)CCn2c1nc1c(Cl)cccc12"
systemname = "GABA-A receptor; anion channel"
label = "YES"

[[record]]
molsmiles = "O=C(Nc1ccccc1F)C1=C(O)CCn2c1nc1c(F)c(F)ccc12"
systemname = "GABA-A receptor; anion channel"
label = "YES"


Prompt: Hi team, for O=C(Nc1ccccc1)C1=C(O)CCn2c1nc1cc(Cl)ccc12 , is the recorded pIC50 at or above 8?
Response: NO

Prompt: Is reported pIC50 greater than or equal to 8 here: O=C(Nc1c(F)cccc1F)C1=C(O)CCn2c1nc1ccc(F)c(F)c12
Response: NO

Prompt: Textbook exercise: given the entry O=C(Nc1ccccc1F)C1=C(O)CCn2c1nc1cc(Cl)ccc12 , state whether its pIC50 is greater than or equal to 8.
Response: YES

Prompt: Check if pIC50 >= 8 (inclusive). Item: Cc1cccc2c1nc1n2CCC(O)=C1C(=O)Nc1ccccc1F
Response: NO

Prompt: Quick check: does O=C(Nc1ccccc1)C1=C(O)CCn2c1nc1cccnc12 have pIC50 greater than or equal to 8?
Response: NO

Prompt: In plain terms: is recorded pIC50 at least 8 for O=C(Nc1c(F)cccc1F)C1=C(O)CCn2c1nc1c(F)cc(F)cc12 ?
Response: NO

Prompt: Determine whether measured pIC50 meets or exceeds 8 for O=C(Nc1ccccc1F)C1=C(O)CCn2c1nc1cccnc12
Response: NO

Prompt: Tell me whether pIC50 is at least 8 here: O=C(Nc1ccccc1)C1=C(O)CCn2c1nc1ccc(Cl)cc12
Response: NO

Prompt: Is the recorded value of pIC50 equal to or greater than 8 for this molecule? COc1cccc2c1nc1n2CCC(O)=C1C(=O)Nc1c(F)cccc1F
Response: NO

###

# systemName: GABA-A receptor; anion channel (Rattus norvegicus) (UniProt O09028+P15431+P18506+P18508+P19969+P20236+P23574+P23576+P28471+P28473+P30191+P62813+P63079+P63138+Q91ZM7+Q9ES14)
# testDescription: GABA shift which is the ratio of binding in the absence and presence of GABA (1 mM) was determined
# Format: protein-complex assay
Decide by GS: equal to or exceeding 2 means YES, less means NO.

Below, 5 molecules whose answers are already recorded.
[[record]]
molsmiles = "O=C(Nc1c(F)cccc1F)C1=C(O)CCn2c1nc1ncccc12"
label = "NO"

[[record]]
molsmiles = "O=C(Nc1ccccc1F)C1=C(O)CCn2c1nc1ccc(F)c(F)c12"
label = "YES"

[[record]]
molsmiles = "O=C(Nc1c(F)cccc1F)C1=C(O)CCn2c1nc1c(F)c(F)ccc12"
label = "NO"

[[record]]
molsmiles = "O=C(Nc1c(F)cccc1F)C1=C(O)CCn2c1nc1c(F)cc(F)cc12"
label = "YES"

[[record]]
molsmiles = "COc1ccc2c(c1)nc1n2CCC(O)=C1C(=O)Nc1ccccc1F"
label = "NO"


Prompt: Please indicate if the recorded GS for O=C(Nc1c(F)cccc1F)C1=C(O)CCn2c1nc1cc(F)ccc12 meets or exceeds 2.
Response: YES
